Task for the reader: assign each of the following compounds its reported Growth Rate.
# Tested on: U2OS
# EXPERIMENT DESCRIPTION: Incucyte cell viability with U2OS; further: unitless GR value; below 1 slowed growth and below 0 cell loss
# Format: toxicity, cell-based
# CONDITION DESCRIPTION: human, 12 h, 10 µM, compound concentration 10 uM, replicate number 2, timepoint 12 hours
Where a SMILES comes first, the peptide text is derived from it. [ ]: non-standard residue; d: D form. Arg(Me) = CNC(=N)NCCC[C@H](N)C(=O)O; d3Pal = N[C@H](Cc1cccnc1)C(=O)O; azaGly = NNC(=O)O
Give bare numbers.

Please review the following examples before continuing.
CNC(=N)NCCC[C@H](NC(=O)[C@H](CC(C)C)NC(=O)NNC(=O)[C@H](Cc1ccccc1)NC(=O)[C@H](CO)NC(=O)[C@H](CC(N)=O)NC(=O)[C@@H](Cc1cccnc1)NC(=O)[C@H](N)Cc1ccc(O)cc1)C(=O)NCC(N)=O [KISS1-543] (H-[dY][d3Pal]NSF[azaGly]L[Arg(Me)]G-NH2)	0.89
Cl.O=C1CC[C@@]2(O)[C@H]3Cc4ccc(O)c5c4[C@@]2(CCN3CC2CC2)[C@H]1O5 [NALTREXONE HYDROCHLORIDE]	0.91

Continue with the next compound.
Task: Hello, I am looking for reported Growth Rate with U2OS for CCCCCCCCCCCCC/C=C/[C@@H](O)[C@@H](N)COP(=O)([O-])OCC[N+](C)(C)C [SPHINGOSYLPHOSPHORYLCHLOLINE] . Could you help?
Result: 0.91

* * *

# System: HEK-293T
# EXPERIMENT DESCRIPTION: Incucyte cell viability with HEK293T; further: unitless GR value; below 1 slowed growth and below 0 cell loss
# Assay type: toxicity, cell-based
# CONDITION DESCRIPTION: human, 24 h, 10 µM, compound concentration 10 uM, replicate number 1, timepoint 24 hours
Note to self: use 1 (yes) only for Growth Rate readings below 0.7; a reading exactly at 0.7 still gets 0 (no).

CCC(=O)OCC(=O)[C@@]1(OC(=O)CC)[C@@H](C)C[C@H]2[C@@H]3CCC4=CC(=O)C=C[C@]4(C)[C@@]3(Cl)[C@@H](O)C[C@@]21C [BECLOMETHASONE DIPROPIONATE]	1 (yes)
CN1CCN(c2ccc(Nc3c4ccccc4nc4ccccc34)cc2)CC1.Cl.Cl.O	1 (yes)
O=c1nc2[nH]c3ccccc3nc-2c(=O)[nH]1	0 (no)

Task: Quick check: Growth Rate of CSCC[C@H](NC(=O)[C@H](CC(C)C)NC(=O)CNC(=O)[C@H](Cc1ccccc1)N(C)C(=O)[C@H](Cc1ccccc1)NC(=O)[C@H](CC(=O)O)NC(=O)CCC(=O)O)C(N)=O [SENKTIDE] under 0.7?
Result: 0 (no)

Task: // query: Cl.Cl.OCCOCCN1CCN(C(c2ccccc2)c2ccc(Cl)cc2)CC1 (stereo not drawn) [HYDROXYZINE HYDROCHLORIDE]
Result: 1 (yes)

Task: Do the same for O=C1NCc2ccc3c(-c4cccc(Cl)c4)c[nH]c3c21 please
Result: 1 (yes)

Task: What would you report for CC(C)Oc1ccc(F)c(-c2cnc(N)c(C(=O)Nc3cnccc3N3CCC[C@@H](C(=O)O)C3)n2)c1 ?
Result: 1 (yes)

Task: Further, for Cl.N=C(N)NC(=O)Cc1c(Cl)cccc1Cl [GUANFACINE HYDROCHLORIDE] ?
Result: 0 (no)

Where do these numbers come from? They come from ChEMBL document CHEMBL5058564.
